Every entry's value here was drawn from PubChem BioAssay (NCATS).

# Method description: Quantitative High-Throughput drug screen in 47 multiple myeloma cell lines against the NCATS MIPE library collection: RPMI8226_ATCC cell viability assay (AID 1919871); also: nearly all actives have a fitted effect of over 30% in size
# Conditions used: RPMI8226 myeloma viability, CellTiter-Glo ATP luminescence, 48 h; series mostly up to 45.8 µM
Inconclusive results are not listed. Active and inactive are the calls of the source. Calls follow the shape of the dose curve; as a rule, active = well fitted cell-killing curve with a large enough effect; inconclusive = small, poorly fitted or top-dose-only effect, or effect the other way; inactive = no such curve, though single readings can be large or run the other way.
Result category, one only: yes (1) = active, no (0) = inactive

Consider the worked cases shown below.
Query: Please state the recorded outcome for this compound: O=C(c1cc(Cc2n[nH]c(=O)c3ccccc23)ccc1F)N1CCN(C(=O)C2CC2)CC1
Result: no (0)

Query: Please state the recorded outcome for this compound: Cc1cn[nH]c1
Result: yes (1)

Query: Please state the recorded outcome for this compound: CCN(c1ccccc1)c1cc(NC)[n+](C)c(C)n1
Result: no (0)

Query: Please state the recorded outcome for this compound: Cn1cnc2c(F)c(Nc3ccc(Br)cc3Cl)c(C(=O)NOCCO)cc21
Result: yes (1)

New cases:
Query: Please state the recorded outcome for this compound: N#CC[C@H](C1CCCC1)n1cc(-c2ncnc3[nH]ccc23)cn1
Result: no (0)

Query: Please state the recorded outcome for this compound: CCOc1cc(C=C2C(=O)N(c3ccccc3)N=C2C)cc(Cl)c1OCC(=O)OC
Result: no (0)

Query: Please state the recorded outcome for this compound: CC(C)NCC(O)COc1ccc(COCCOC(C)C)cc1 (stereo not given)
Result: no (0)

Query: Please state the recorded outcome for this compound: COc1ccc(CCN2CCN(CCCc3ccccc3)CC2)cc1OC
Result: no (0)

Query: Please state the recorded outcome for this compound: CN(C)c1ccc(Nc2nc(N)n(C(=O)c3c(F)cccc3F)n2)cc1
Result: no (0)

Query: Please state the recorded outcome for this compound: COc1cc2nccc(Oc3ccc(NC(=O)NC4CC4)c(Cl)c3)c2cc1C(N)=O
Result: yes (1)

Query: Please state the recorded outcome for this compound: Cc1[nH]c(=O)c(C#N)cc1-c1ccc2nccn2c1
Result: no (0)

Query: Please state the recorded outcome for this compound: Cc1c(C)c2c(c(C)c1O)CCC(C)(COc1ccc(CC3SC(=O)NC3=O)cc1)O2 (stereo not given)
Result: no (0)

Query: Please state the recorded outcome for this compound: O=NN(CCCl)C(=O)NCCCl
Result: no (0)

Query: Please state the recorded outcome for this compound: CCC(C)n1ncn(-c2ccc(N3CCN(c4ccc(OC[C@H]5CO[C@](Cn6cncn6)(c6ccc(Cl)cc6Cl)O5)cc4)CC3)cc2)c1=O (stereo not given in full)
Result: yes (1)

Query: Please state the recorded outcome for this compound: NC(=O)C1CCCc2c1[nH]c1ccc(Cl)cc21 (stereo not given)
Result: no (0)

Query: Please state the recorded outcome for this compound: COc1ccc(-c2oc3cc(OC)ccc3c2C(=O)c2ccc(C#N)cc2)cc1
Result: no (0)

Query: Please state the recorded outcome for this compound: CCn1cc(C(=O)O)c(=O)c2cc(F)c(N3CCNC(C)C3)c(F)c21 (stereo not given)
Result: no (0)
